FYI, the data here is from the supplement of paper PMC6470124.

Please respond with reported absolute recovery for every item in the list.
# RUN DESCRIPTION: absolute recovery over vacuum-assisted evaporative concentration; higher = better recovery
# CONDITIONS: wastewater influent; enrichment method: VEC

Study these solved cases before continuing.
INSERT INTO results (molecule, measured_result) VALUES
  ('CCC(=O)OC(Cc1ccccc1)(c1ccccc1)C(C)C[NH+](C)C (centres undefined)', '110%'),
  ('O=C([O-])c1ccccc1Nc1cccc(C(F)(F)F)c1', '103%'),
  ('O=C1C=CC(=C2NC=CNC2=O)C=C1', '107%'),
  ('CCC(=O)C(CC(C)[NH+](C)C)(c1ccccc1)c1ccccc1 (centres undefined)', '100%'),
  ('O=C(Nc1ccc(F)cc1F)c1cccnc1Oc1cccc(C(F)(F)F)c1', '101%');

For every listed record, write down its absolute recovery.
1. CC(Cn1cnc2c(N)ncnc21)OCP(=O)([O-])O (centres undefined)
2. CC(Oc1ccc(Cl)cc1Cl)C(=O)[O-] (centres undefined)
3. Cc1cccc(N(C)C(=S)Oc2ccc3ccccc3c2)c1
4. Cn1cc(C(=O)Nc2ccc(F)cc2-c2ccc(Cl)c(Cl)c2)c(C(F)F)n1

Given back:
1: 114%; 2: 99.8%; 3: 92.4%; 4: 108%
